Test system: RPMI-8226 leukemia
Assay: NCI tumour cell line growth inhibition, 48 h; in the data active = GI50 below about 0.43 µM; inactive = the rest
Log the outcome using a class from true (1) for active, false (0) for inactive

Input line: What did the test return for `Cc1sc2c(c1C)C(c1ccc(Cl)cc1)=N[C@@H](CC(=O)Nc1ccc(O)cc1)c1nnc(C)n1-2` ?
Output line: true (1)

Input line: Given `COc1ccc(-c2cc3nccn3c(Nc3ncccc3C(N)=O)n2)cc1OC` , state the outcome it received in this test.
Output line: false (0)

Input line: How was `Cc1cc(Cl)ccc1Nc1nc(C(F)(F)F)ccc1C(=O)N/N=C/c1ccc(N(C)C)cc1` classified in this test?
Output line: false (0)

Input line: Please let me know the test result on file for CC1CCC(C#N)(NOC2=NCCN2)CC1 (stereo unspecified) .
Output line: false (0)

Input line: Please let me know the test result on file for C=CC1=C(C)C(Cc2[nH]c(/C=c3\[nH]/c(=C/C4=NC(=O)C(C)/C4=C\C)c(C)c3CCC(=O)O)c(CCC(=O)OC)c2C)NC1=O (stereo unspecified) .
Output line: false (0)

Input line: # fetch the recorded call for `O=C(Nc1ccc([N+](=O)[O-])cc1)c1cc2ccccc2cc1O` here
Output line: true (1)
